# System: MCF-7
# assay: MTT cytotoxicity assay, MCF-7
# Type: cell-based, human
# assay conditions: Homo sapiens, MCF7, read-out: EC50 MCF-7
Catalogue of EC50 values
Write the answer as a number in µM, unit excluded.

Worked set:
The compound "CCn1c(=O)n(CC(=O)Nc2ccc(-c3nnc(S)o3)cc2)c(=O)c2cc(I)ccc21" showed EC50 equal to 8.25

The compound "CCCn1c(=O)n(CC(=O)Nc2ccc(C(=O)OCC)cc2)c(=O)c2cc(I)ccc21" showed EC50 equal to 7.37

The compound "CCCn1c(=O)n(CC(=O)Nc2ccc(-c3nnc(S)o3)cc2)c(=O)c2cc(I)ccc21" showed EC50 equal to 7.45

The compound "CCn1c(=O)n(CC(=O)Nc2ccc(C(=O)OC)cc2)c(=O)c2cc(I)ccc21" showed EC50 equal to 11.6

The compound "CCn1c(=O)n(CC(=O)Nc2ccc(C(=O)NN)cc2)c(=O)c2cc(I)ccc21" showed EC50 equal to 15.5

The compound "CCNC(=O)c1ccc(NC(=O)Cn2c(=O)c3cc(I)ccc3n(CC)c2=O)cc1" showed EC50 equal to 8.5

The compound C#Cc1cccc(Nc2ncnc3cc(OCCOC)c(OCCOC)cc23)c1 [Erlotinib, reference compound] showed EC50 equal to 13.9

New cases:
The compound "CCCn1c(=O)n(CC(=O)Nc2ccc(C(=O)NN)cc2)c(=O)c2cc(I)ccc21" showed EC50 equal to 13.9

* * *

Catalogue of pIC50 values
# system name: VEGFR-2 (Homo sapiens, UniProt P35968)
# Sequence (P35968 20-1356): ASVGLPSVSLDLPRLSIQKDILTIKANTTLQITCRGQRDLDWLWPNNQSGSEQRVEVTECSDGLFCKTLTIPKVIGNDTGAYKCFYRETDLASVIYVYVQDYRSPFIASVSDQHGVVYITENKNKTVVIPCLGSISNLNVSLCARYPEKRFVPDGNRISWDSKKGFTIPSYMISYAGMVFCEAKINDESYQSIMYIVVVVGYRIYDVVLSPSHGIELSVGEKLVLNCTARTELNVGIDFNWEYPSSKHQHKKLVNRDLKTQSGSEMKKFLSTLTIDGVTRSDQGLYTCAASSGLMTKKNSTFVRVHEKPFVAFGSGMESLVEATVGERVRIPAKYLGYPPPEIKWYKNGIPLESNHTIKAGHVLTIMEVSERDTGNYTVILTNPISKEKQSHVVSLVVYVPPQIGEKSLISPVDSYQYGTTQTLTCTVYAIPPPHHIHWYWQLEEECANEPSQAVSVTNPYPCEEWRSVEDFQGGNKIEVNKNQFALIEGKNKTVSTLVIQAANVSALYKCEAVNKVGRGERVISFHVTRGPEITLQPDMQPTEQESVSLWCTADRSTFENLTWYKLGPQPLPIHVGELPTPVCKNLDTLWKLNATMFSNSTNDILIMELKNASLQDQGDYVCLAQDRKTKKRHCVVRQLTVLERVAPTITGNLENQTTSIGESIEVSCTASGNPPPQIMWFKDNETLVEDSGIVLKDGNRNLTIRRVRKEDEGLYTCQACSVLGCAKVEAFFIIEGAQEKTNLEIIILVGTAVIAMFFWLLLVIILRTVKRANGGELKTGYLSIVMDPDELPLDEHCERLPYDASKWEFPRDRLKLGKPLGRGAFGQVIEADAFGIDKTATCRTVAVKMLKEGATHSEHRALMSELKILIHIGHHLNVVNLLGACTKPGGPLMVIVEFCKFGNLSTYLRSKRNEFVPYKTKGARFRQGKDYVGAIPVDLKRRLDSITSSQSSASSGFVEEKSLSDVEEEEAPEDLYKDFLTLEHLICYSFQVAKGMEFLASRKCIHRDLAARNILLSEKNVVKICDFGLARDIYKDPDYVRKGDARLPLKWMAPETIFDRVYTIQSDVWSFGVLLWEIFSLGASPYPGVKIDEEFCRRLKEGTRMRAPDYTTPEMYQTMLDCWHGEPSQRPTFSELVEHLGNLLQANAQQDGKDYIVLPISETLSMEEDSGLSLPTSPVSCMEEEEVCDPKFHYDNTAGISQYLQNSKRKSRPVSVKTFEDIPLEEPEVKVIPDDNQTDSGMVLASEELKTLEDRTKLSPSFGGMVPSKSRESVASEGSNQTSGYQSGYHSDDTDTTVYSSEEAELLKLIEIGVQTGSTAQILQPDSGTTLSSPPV
# assay: In vitro VEGFR-2 kinase inhibitory assay
# Type: biochemical
The scale used: pIC50 is minus the common logarithm of the concentration in molar units.

Worked set:
The compound "CCCn1c(=O)n(CC(=O)Nc2ccc(C(=O)NC)cc2)c(=O)c2cc(I)ccc21" showed pIC50 equal to 5.78

The compound "CCCn1c(=O)n(CC(=O)Nc2ccc(C(=O)NN=Cc3ccc(Cl)cc3)cc2)c(=O)c2cc(I)ccc21" showed pIC50 equal to 5.92

The compound "CCCn1c(=O)n(CC(=O)Nc2ccc(-c3nnc(S)o3)cc2)c(=O)c2cc(I)ccc21" showed pIC50 equal to 5.86

The compound "CCOC(=O)c1ccc(NC(=O)Cn2c(=O)c3cc(I)ccc3n(CC)c2=O)cc1" showed pIC50 equal to 5.82

New cases:
The compound "CCn1c(=O)n(CC(=O)Nc2ccc(C(=O)NN)cc2)c(=O)c2cc(I)ccc21" showed pIC50 equal to 5.60

The compound "CCCn1c(=O)n(CC(=O)Nc2ccc(C(=O)OCC)cc2)c(=O)c2cc(I)ccc21" showed pIC50 equal to 5.90

The compound "CCn1c(=O)n(CC(=O)Nc2ccc(C(=O)OC)cc2)c(=O)c2cc(I)ccc21" showed pIC50 equal to 5.70

* * *

Catalogue of pEC50 values
# Tested on: HCT116
# assay: MTT cytotoxicity assay, HCT116
# Assay type: cell-based, human
# assay conditions: Homo sapiens, HCT-116, read-out: EC50 HCT116
The scale used: pEC50 is minus the common logarithm of the concentration in molar units.

Worked set:
With HCT116 as the test system, CCn1c(=O)n(CC(=O)Nc2ccc(-c3nnc(S)o3)cc2)c(=O)c2cc(I)ccc21 [Compound 8a] showed pEC50 of 5.14

With HCT116 as the test system, CCCn1c(=O)n(CC(=O)Nc2ccc(C(=O)NN=Cc3ccc(Cl)cc3)cc2)c(=O)c2cc(I)ccc21 [Compound 9e] showed pEC50 of 5.17

With HCT116 as the test system, CCCn1c(=O)n(CC(=O)Nc2ccc(C(=O)NC)cc2)c(=O)c2cc(I)ccc21 [Compound 6b] showed pEC50 of 5.08

New cases:
With HCT116 as the test system, CCCn1c(=O)n(CC(=O)Nc2ccc(-c3nnc(S)o3)cc2)c(=O)c2cc(I)ccc21 [Compound 8b] showed pEC50 of 5.17

With HCT116 as the test system, CCCn1c(=O)n(CC(=O)Nc2ccc(C(=O)OCC)cc2)c(=O)c2cc(I)ccc21 [Compound 5d] showed pEC50 of 5.19

With HCT116 as the test system, CCn1c(=O)n(CC(=O)Nc2ccc(C(=O)NN=Cc3ccc(C)cc3)cc2)c(=O)c2cc(I)ccc21 [Compound 9b] showed pEC50 of 5.23

With HCT116 as the test system, CCCn1c(=O)n(CC(=O)Nc2ccc(C(=O)OC)cc2)c(=O)c2cc(I)ccc21 [Compound 5c] showed pEC50 of 5.16

With HCT116 as the test system, CCn1c(=O)n(CC(=O)Nc2ccc(C(=O)NN)cc2)c(=O)c2cc(I)ccc21 [Compound 7a] showed pEC50 of 4.88

With HCT116 as the test system, CCCn1c(=O)n(CC(=O)Nc2ccc(C(=O)NN)cc2)c(=O)c2cc(I)ccc21 [Compound 7b] showed pEC50 of 4.80

With HCT116 as the test system, CCn1c(=O)n(CC(=O)Nc2ccc(C(=O)NN=Cc3ccc(OC)cc3)cc2)c(=O)c2cc(I)ccc21 [Compound 9c] showed pEC50 of 5.29

With HCT116 as the test system, CCCn1c(=O)n(CC(=O)Nc2ccc(C(=O)NN=Cc3ccccc3)cc2)c(=O)c2cc(I)ccc21 [Compound 9d] showed pEC50 of 5.19

With HCT116 as the test system, CCNC(=O)c1ccc(NC(=O)Cn2c(=O)c3cc(I)ccc3n(CC)c2=O)cc1 [Compound 6a] showed pEC50 of 5.12

* * *

# Test system: MCF-7
# assay: MTT cytotoxicity assay, MCF-7
# Type: cell-based, human
# assay conditions: Homo sapiens, MCF7, read-out: EC50 MCF-7
Threshold check on EC50: strictly below 7 µM is Fulfilled; on or above 7 µM is Not fulfilled.

Identify whether the molecule "CCn1c(=O)n(CC(=O)Nc2ccc(C(=O)NN=Cc3ccccc3)cc2)c(=O)c2cc(I)ccc21" records EC50 below 7 µM.
Not fulfilled

New cases:
Identify whether the molecule "CCn1c(=O)n(CC(=O)Nc2ccc(C(=O)NN=Cc3ccc(C)cc3)cc2)c(=O)c2cc(I)ccc21" records EC50 below 7 µM.
Fulfilled

Identify whether the molecule "CCCn1c(=O)n(CC(=O)Nc2ccc(C(=O)NN=Cc3ccc(Cl)cc3)cc2)c(=O)c2cc(I)ccc21" records EC50 below 7 µM.
Not fulfilled

Identify whether the molecule "CCCn1c(=O)n(CC(=O)Nc2ccc(C(=O)NC)cc2)c(=O)c2cc(I)ccc21" records EC50 below 7 µM.
Not fulfilled

Identify whether the molecule "CCOC(=O)c1ccc(NC(=O)Cn2c(=O)c3cc(I)ccc3n(CC)c2=O)cc1" records EC50 below 7 µM.
Not fulfilled

Identify whether the molecule "CCCn1c(=O)n(CC(=O)Nc2ccc(C(=O)OC)cc2)c(=O)c2cc(I)ccc21" records EC50 below 7 µM.
Not fulfilled

Identify whether the molecule "CCn1c(=O)n(CC(=O)Nc2ccc(C(=O)NN=Cc3ccc(OC)cc3)cc2)c(=O)c2cc(I)ccc21" records EC50 below 7 µM.
Fulfilled

Identify whether the molecule "CCCn1c(=O)n(CC(=O)Nc2ccc(C(=O)NN=Cc3ccccc3)cc2)c(=O)c2cc(I)ccc21" records EC50 below 7 µM.
Fulfilled

* * *

Catalogue of Selectivity index (SI): folds toxicity in A549 than in VERO cells values
# Tested on: A549
# assay: MTT cytotoxicity assay, A549
# Type: cell-based, human
# assay conditions: CC50 VERO vs EC50 A549
Your answer should be a number followed by the unit of measure.

The molecule "CCCn1c(=O)n(CC(=O)Nc2ccc(C(=O)NN=Cc3ccc(Cl)cc3)cc2)c(=O)c2cc(I)ccc21" showed Selectivity index (SI): folds toxicity in A549 than in VERO cells equal to 7.30 folds

The molecule "CCn1c(=O)n(CC(=O)Nc2ccc(C(=O)NN=Cc3ccccc3)cc2)c(=O)c2cc(I)ccc21" showed Selectivity index (SI): folds toxicity in A549 than in VERO cells equal to 6.74 folds

The molecule "CCn1c(=O)n(CC(=O)Nc2ccc(C(=O)NN=Cc3ccc(C)cc3)cc2)c(=O)c2cc(I)ccc21" showed Selectivity index (SI): folds toxicity in A549 than in VERO cells equal to 7.30 folds

--- query ---
The molecule "CCCn1c(=O)n(CC(=O)Nc2ccc(C(=O)NN=Cc3ccccc3)cc2)c(=O)c2cc(I)ccc21" showed Selectivity index (SI): folds toxicity in A549 than in VERO cells equal to 9.20 folds

* * *

# system name: EGFR^T790M (Homo sapiens, UniProt P00533, T790M)
# Sequence (P00533 25-1210 T790M): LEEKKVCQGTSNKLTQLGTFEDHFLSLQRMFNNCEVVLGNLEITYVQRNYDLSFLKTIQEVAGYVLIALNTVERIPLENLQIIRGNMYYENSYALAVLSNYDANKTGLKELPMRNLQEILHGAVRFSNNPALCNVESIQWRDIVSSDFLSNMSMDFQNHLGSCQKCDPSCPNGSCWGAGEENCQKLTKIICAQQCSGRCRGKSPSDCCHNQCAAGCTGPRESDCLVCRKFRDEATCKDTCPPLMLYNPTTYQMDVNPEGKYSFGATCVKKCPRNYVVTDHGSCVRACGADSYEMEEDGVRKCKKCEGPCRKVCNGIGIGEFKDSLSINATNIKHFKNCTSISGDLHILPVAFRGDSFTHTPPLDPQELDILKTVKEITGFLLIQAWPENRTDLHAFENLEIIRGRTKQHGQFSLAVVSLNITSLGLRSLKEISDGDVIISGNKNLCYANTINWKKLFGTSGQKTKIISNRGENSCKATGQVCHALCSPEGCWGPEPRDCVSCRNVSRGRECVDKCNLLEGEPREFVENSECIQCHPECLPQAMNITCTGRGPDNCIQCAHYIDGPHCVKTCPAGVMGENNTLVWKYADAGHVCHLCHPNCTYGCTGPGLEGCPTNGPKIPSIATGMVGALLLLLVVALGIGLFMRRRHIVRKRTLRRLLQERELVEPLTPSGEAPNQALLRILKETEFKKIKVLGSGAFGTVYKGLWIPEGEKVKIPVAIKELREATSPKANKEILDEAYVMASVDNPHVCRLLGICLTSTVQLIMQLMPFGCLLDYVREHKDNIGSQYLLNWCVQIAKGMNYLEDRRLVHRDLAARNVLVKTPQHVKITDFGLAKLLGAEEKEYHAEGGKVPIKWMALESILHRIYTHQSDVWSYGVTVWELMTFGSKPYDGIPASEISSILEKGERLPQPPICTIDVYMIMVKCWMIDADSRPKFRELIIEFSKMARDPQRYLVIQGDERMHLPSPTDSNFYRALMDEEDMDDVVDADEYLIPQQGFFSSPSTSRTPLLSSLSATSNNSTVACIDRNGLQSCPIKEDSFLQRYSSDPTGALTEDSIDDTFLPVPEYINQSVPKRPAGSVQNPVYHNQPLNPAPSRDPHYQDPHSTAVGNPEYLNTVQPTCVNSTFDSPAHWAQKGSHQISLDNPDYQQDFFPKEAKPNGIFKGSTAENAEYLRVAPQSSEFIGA
# assay: In vitro EGFR^T790M kinase inhibitory assay
# Type: biochemical
reported property: IC50

The compound CCn1c(=O)n(CC(=O)Nc2ccc(C(=O)NN=Cc3ccc(C)cc3)cc2)c(=O)c2cc(I)ccc21 [Compound 9b] showed IC50 equal to 500 nM

The compound CCCn1c(=O)n(CC(=O)Nc2ccc(C(=O)NN)cc2)c(=O)c2cc(I)ccc21 [Compound 7b] showed IC50 equal to 2050 nM

The compound CCCn1c(=O)n(CC(=O)Nc2ccc(C(=O)NN=Cc3ccccc3)cc2)c(=O)c2cc(I)ccc21 [Compound 9d] showed IC50 equal to 260 nM

New cases:
The compound CCNC(=O)c1ccc(NC(=O)Cn2c(=O)c3cc(I)ccc3n(CC)c2=O)cc1 [Compound 6a] showed IC50 equal to 900 nM

The compound CCCn1c(=O)n(CC(=O)Nc2ccc(C(=O)OCC)cc2)c(=O)c2cc(I)ccc21 [Compound 5d] showed IC50 equal to 400 nM

The compound CCn1c(=O)n(CC(=O)Nc2ccc(-c3nnc(S)o3)cc2)c(=O)c2cc(I)ccc21 [Compound 8a] showed IC50 equal to 1000 nM

The compound CCn1c(=O)n(CC(=O)Nc2ccc(C(=O)NN=Cc3ccc(OC)cc3)cc2)c(=O)c2cc(I)ccc21 [Compound 9c] showed IC50 equal to 220 nM

The compound CCCn1c(=O)n(CC(=O)Nc2ccc(C(=O)OC)cc2)c(=O)c2cc(I)ccc21 [Compound 5c] showed IC50 equal to 920 nM

The compound CCCn1c(=O)n(CC(=O)Nc2ccc(C(=O)NN=Cc3ccc(Cl)cc3)cc2)c(=O)c2cc(I)ccc21 [Compound 9e] showed IC50 equal to 300 nM

The compound CCCn1c(=O)n(CC(=O)Nc2ccc(-c3nnc(S)o3)cc2)c(=O)c2cc(I)ccc21 [Compound 8b] showed IC50 equal to 450 nM

The compound CCOC(=O)c1ccc(NC(=O)Cn2c(=O)c3cc(I)ccc3n(CC)c2=O)cc1 [Compound 5b] showed IC50 equal to 800 nM

The compound CCn1c(=O)n(CC(=O)Nc2ccc(C(=O)NN)cc2)c(=O)c2cc(I)ccc21 [Compound 7a] showed IC50 equal to 1500 nM

The compound CCCn1c(=O)n(CC(=O)Nc2ccc(C(=O)NC)cc2)c(=O)c2cc(I)ccc21 [Compound 6b] showed IC50 equal to 600 nM

The compound CCn1c(=O)n(CC(=O)Nc2ccc(C(=O)OC)cc2)c(=O)c2cc(I)ccc21 [Compound 5a] showed IC50 equal to 860 nM

The compound CCn1c(=O)n(CC(=O)Nc2ccc(C(=O)NN=Cc3ccccc3)cc2)c(=O)c2cc(I)ccc21 [Compound 9a] showed IC50 equal to 750 nM
